Target: T1, human pIgR, full-length, on cells (human, UniProt P01833 19-764)
T1 construct: whole, on cells; Used for the flow cytometry EC50 values (MDCK-hpIgR) and for the transcytosis read-outs; also called hpIgR; cell-surface hpIgR
T1 sequence (P01833 19-764): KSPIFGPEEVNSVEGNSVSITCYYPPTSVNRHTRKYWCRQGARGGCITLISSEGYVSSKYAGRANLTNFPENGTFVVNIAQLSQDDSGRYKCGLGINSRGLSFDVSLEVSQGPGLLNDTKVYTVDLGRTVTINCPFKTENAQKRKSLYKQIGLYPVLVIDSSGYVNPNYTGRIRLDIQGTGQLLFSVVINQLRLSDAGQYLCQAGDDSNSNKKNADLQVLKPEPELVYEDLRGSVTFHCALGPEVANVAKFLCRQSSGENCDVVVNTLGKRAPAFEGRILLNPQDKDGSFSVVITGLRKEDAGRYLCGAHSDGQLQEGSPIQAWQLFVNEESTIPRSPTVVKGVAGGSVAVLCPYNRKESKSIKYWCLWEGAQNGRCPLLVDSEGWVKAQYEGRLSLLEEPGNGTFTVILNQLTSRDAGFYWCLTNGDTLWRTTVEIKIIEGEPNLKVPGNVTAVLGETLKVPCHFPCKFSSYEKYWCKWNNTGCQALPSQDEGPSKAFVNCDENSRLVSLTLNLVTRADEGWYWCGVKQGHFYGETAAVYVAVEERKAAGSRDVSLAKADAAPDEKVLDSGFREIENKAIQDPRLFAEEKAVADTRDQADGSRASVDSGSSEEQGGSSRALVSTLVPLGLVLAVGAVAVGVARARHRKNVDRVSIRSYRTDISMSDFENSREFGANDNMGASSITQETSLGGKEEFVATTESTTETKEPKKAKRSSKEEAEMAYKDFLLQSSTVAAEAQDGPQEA
Assay: flow cytometry on MDCK-hpIgR cells; summary table, repeats Table 1

binder	EC50 / nM
VHH12-linker-mono-Fc protein (Fc fusion, made in CHO cells; also called VHH12-mono-Fc; hpIgR_266) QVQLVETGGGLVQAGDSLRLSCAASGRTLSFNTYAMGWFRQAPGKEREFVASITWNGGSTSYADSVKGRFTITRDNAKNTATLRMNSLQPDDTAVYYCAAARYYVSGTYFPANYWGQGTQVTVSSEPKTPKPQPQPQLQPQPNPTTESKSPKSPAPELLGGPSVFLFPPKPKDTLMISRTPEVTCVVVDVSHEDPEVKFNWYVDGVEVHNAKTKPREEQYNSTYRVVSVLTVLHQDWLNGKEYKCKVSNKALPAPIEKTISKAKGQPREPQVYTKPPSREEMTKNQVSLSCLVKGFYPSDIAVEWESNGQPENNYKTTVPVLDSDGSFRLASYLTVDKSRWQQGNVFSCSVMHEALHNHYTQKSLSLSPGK	4.6
VHH3-linker-mono-Fc protein (Fc fusion, made in CHO cells; also called VHH3-mono-Fc; hpIgR_021) QLQLVESGGGLVQPGGSLRLSCAASGSIFSINVMGWYRQAPGKQRELVARINGGGITHYAESVKGRFTISRDNAKNTVYLQMNSLKPEDTAAYYCKADVFGSSGYVETYWGQGTQVTVSSEPKTPKPQPQPQLQPQPNPTTESKSPKSPAPELLGGPSVFLFPPKPKDTLMISRTPEVTCVVVDVSHEDPEVKFNWYVDGVEVHNAKTKPREEQYNSTYRVVSVLTVLHQDWLNGKEYKCKVSNKALPAPIEKTISKAKGQPREPQVYTKPPSREEMTKNQVSLSCLVKGFYPSDIAVEWESNGQPENNYKTTVPVLDSDGSFRLASYLTVDKSRWQQGNVFSCSVMHEALHNHYTQKSLSLSPGK	6.4
